# experimental_system: Mer (Homo sapiens (Human))
# Sequence (Q12866 21-999): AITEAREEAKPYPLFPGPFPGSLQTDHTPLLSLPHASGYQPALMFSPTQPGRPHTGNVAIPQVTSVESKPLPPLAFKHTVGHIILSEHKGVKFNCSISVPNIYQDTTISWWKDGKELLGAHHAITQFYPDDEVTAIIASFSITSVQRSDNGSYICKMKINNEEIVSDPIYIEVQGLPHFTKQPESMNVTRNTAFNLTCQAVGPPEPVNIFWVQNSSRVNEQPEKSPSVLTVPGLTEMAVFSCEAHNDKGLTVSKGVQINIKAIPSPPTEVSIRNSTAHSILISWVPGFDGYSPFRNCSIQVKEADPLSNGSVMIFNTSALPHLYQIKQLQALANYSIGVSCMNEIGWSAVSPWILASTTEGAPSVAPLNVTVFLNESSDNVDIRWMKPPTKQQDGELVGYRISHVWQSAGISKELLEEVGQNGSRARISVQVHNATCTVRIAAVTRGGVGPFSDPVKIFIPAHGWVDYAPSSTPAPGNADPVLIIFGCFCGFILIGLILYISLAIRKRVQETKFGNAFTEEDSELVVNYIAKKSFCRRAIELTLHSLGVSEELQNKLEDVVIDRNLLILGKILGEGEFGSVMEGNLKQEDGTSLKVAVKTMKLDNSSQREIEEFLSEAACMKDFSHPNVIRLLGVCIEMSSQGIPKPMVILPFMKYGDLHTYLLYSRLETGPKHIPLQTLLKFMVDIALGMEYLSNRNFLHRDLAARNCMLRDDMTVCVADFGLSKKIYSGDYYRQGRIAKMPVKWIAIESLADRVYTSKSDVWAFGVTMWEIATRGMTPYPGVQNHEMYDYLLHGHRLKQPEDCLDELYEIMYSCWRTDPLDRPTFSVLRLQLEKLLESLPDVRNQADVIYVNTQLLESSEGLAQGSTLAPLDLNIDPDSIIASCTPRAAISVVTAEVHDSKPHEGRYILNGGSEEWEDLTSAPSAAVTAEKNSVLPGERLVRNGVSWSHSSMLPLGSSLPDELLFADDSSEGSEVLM
# test_details: Mer autophosphorylation ELISA in transient transfected 293A cells
# recorded_conditions: cellular, MERTK transfected 293A cells
reported_metric: IC50

Any idea what IC50 was measured for CCC1NC(=O)c2cc3c(Oc4ccc(NC(=O)C5(C(=O)Nc6ccc(F)cc6)CC5)cc4)ccnc3cc2O1 (stereo not shown) ?
0.01 to 0.1 µM

Another molecule: "CNC(=O)c1cc2nccc(Oc3cc(Cl)c(NC(=O)C4(C(=O)Nc5ccc(F)cc5)CC4)cc3F)c2cc1C"
0.01 to 0.1 µM

Another molecule: "CNC(=O)c1cc2c(Oc3ccc(NC(=O)C4(C(=O)Nc5ccc(F)cc5)CC4)cc3)ccnc2cc1OCCO"
0.01 to 0.1 µM

Another molecule: "Cc1cc2c(Oc3ccc(NC(=O)C4(C(=O)Nc5ccc(F)cc5)CC4)cc3F)ccnc2cc1C(N)=O"
0.01 to 0.1 µM

Another molecule: "CCNC(=O)c1ccc2c(Oc3ccc(NC(=O)C4(C(=O)Nc5ccc(F)cc5)CC4)cc3)ccnc2c1"
0.01 to 0.1 µM

Another molecule: "COc1cc2nccc(Oc3ccc(NC(=O)C4(C(=O)Nc5ccc(F)cc5)CC4)cc3)c2cc1-c1ncco1"
≤ 0.01 µM

Another molecule: "CCNC(=O)c1cc2c(Oc3ccc(NC(=O)C4(C(=O)Nc5ccc(F)cc5)CC4)cc3)ccnc2cc1OC"
≤ 0.01 µM
